Molecular target: T1, biotinylated human DLL3 protein expressed as a human IgG1 fusion protein (human, UniProt Q9NYJ7 27-492, limits assumed, biotinylated)
T1 sequence: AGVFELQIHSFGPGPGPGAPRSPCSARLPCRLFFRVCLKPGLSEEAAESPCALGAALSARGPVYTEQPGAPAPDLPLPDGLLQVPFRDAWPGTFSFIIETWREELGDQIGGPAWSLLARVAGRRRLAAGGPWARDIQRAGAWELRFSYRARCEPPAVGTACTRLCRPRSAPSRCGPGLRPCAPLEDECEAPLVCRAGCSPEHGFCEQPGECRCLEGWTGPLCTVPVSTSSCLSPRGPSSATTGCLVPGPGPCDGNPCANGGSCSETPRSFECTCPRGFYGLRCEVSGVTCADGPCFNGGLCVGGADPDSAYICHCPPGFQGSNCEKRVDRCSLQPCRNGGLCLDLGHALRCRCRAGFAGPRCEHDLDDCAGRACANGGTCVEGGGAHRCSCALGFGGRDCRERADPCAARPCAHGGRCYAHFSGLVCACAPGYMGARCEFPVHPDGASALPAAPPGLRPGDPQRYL
Assay: Octet BLI, single 50 nM
assay.endpoint: Kd (nM)
# output: bare number, implied unit nM

Previously resolved entries follow.
// query Record request: Kd value, item 3E04 anti-DLL3 trispecific protein (other, not shown: linker 1808, anti-albumin sdAb, linker 1808, anti-CD3 fragment, His6 1819) EVQLVESGGGLVQPGGSLTLSCAASGSSVHFLSMAWYRQAPGKKRELVAGISRDGSTDYIDSVKGRFTISRDNAKNSVYLQMNSLRAEDTAVYYCYAYRWTTRYRYWGQGTLVTVSS
// result 11

// query Input 1H08 anti-DLL3 trispecific protein (other, not shown: linker 1808, anti-albumin sdAb, linker 1808, anti-CD3 fragment, His6 1819) EVQLVESGGGLVQPGGSLTLSCVASGSTFSINAMGWYRRAPGKQRELVAGISSDGSKVLADSVKGRFTISRDNAKNSVYLQMNSLRAEDTAVYYCYYFRLVSGSSMRYWGQGTLVTVSS
// result 17

// query What do you get for 1H011 anti-DLL3 trispecific protein (other, not shown: linker 1808, anti-albumin sdAb, linker 1808, anti-CD3 fragment, His6 1819) EVQLVESGGGLVQPGGSLTLSCVASGSTSSINAIGWYRRAPGKQRELVAGISSDGSKVYNDSVKGRFTISRDNAKNSVYLQMNSLRAEDTAVYYCYYFRTQSGSSMRYWGQGTLVTVSS ?
// result 6.2

// query Thanks! And 3C08 anti-DLL3 trispecific protein (other, not shown: linker 1808, anti-albumin sdAb, linker 1808, anti-CD3 fragment, His6 1819) EVQLVESGGGLVQPGGSLTLSCAASGSSVKFLSMAWYRQAPGKKRELVAGISLDGSTDYIDSVKGRFTISRDNAKNSVYLQMNSLRAEDTAVYYCYAYRWTGRYTYWGQGTLVTVSS ?
// result 5.9

Next:
// query Give the measured Kd of 2A09 anti-DLL3 trispecific protein (other, not shown: linker 1808, anti-albumin sdAb, linker 1808, anti-CD3 fragment, His6 1819) EVQLVESGGGLVQPGGSLTLSCVASGSTSSRNAMGWYRRAPGKQRELVAGISSNGSKVYSDSVKGRFTISRDNAKNSVYLQMNSLRAEDTAVYYCYYFRTVSGSSMSYWGQGTLVTVSS .
// result 10

// query Quick one: 4F08 anti-DLL3 trispecific protein (other, not shown: linker 1808, anti-albumin sdAb, linker 1808, anti-CD3 fragment, His6 1819) EVQLVESGGGLVQPGGSLTLSCAASGSKVSFLSMAWYRQAPGKKRELVAGISADGSTAYIDSVKGRFTISRDNAKNSVYLQMNSLRAEDTAVYYCYAYRWRTRYTYWGQGTLVTVSS
// result 9

// query 3D05 anti-DLL3 trispecific protein (other, not shown: linker 1808, anti-albumin sdAb, linker 1808, anti-CD3 fragment, His6 1819) EVQLVESGGGLVQPGGSLTLSCAASGSSVRFLSMAWYRQAPGKKRELVAGISADGSTDYIDSVKGRFTISRDNAKNSVYLQMNSLRAEDTAVYYCYAYRWTRRYTYWGQGTLVTVSS , same question.
// result 16

// query Can you handle 4E06 anti-DLL3 trispecific protein (other, not shown: linker 1808, anti-albumin sdAb, linker 1808, anti-CD3 fragment, His6 1819) EVQLVESGGGLVQPGGSLTLSCAASGTSVSFLSMAWYRQAPGKKRELVAGISADGSTDYIRSVKGRFTISRDNAKNSVYLQMNSLRAEDTAVYYCYAYRWTTRLTYWGQGTLVTVSS next?
// result 10

// query Please answer likewise for 3F010 anti-DLL3 trispecific protein (other, not shown: linker 1808, anti-albumin sdAb, linker 1808, anti-CD3 fragment, His6 1819) EVQLVESGGGLVQPGGSLTLSCAASYSSVSRLSMAWYRQAPGKKRELVAGISADGSTVYIDSVKGRFTISRDNAKNSVYLQMNSLRAEDTAVYYCYAYRWTTRNTYWGQGTLVTVSS
// result 4.4

// query Another binder to check: 1G07 anti-DLL3 trispecific protein (other, not shown: linker 1808, anti-albumin sdAb, linker 1808, anti-CD3 fragment, His6 1819) EVQLVESGGGLVQPGGSLTLSCVASGSTSSINAMGWYRRAPGKQRELVAGISSDGSKVVADSVKGRFTISRDNAKNSVYLQMNSLRAEDTAVYYCYYFRTYSGSSMRYWGQGTLVTVSS
// result 8.3

// data source = patent US20240141072A1
